# inhibition at 1 µM listing for each entry below
molecular target: c-Met intracellular domain protein (Homo sapiens); construct: 2.5 ng/ml of c-Met intracellular domain protein (Millipore); purchased Millipore; assay: Hepatocyte growth factor receptor (c-Met) kinase inhibitory activity (AlphaScreen); type: biochemical; conditions: 1 μM test compound; read-out: inhibitory rate (%) at 1 μM
Sequence (P08581 956-1390 limits assumed): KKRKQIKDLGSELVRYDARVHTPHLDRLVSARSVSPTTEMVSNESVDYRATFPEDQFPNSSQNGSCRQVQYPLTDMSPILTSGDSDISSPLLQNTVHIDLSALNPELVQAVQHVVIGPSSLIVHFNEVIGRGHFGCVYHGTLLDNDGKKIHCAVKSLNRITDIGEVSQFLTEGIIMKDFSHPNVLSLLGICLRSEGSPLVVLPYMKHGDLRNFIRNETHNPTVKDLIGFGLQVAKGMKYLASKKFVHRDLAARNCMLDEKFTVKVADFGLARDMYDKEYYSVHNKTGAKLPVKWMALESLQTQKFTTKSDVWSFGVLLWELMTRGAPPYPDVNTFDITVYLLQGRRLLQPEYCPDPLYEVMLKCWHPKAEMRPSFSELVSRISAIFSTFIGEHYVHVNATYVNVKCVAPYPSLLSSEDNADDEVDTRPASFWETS

Solved entries:
compound | reported_metric | assay_value
Cc1ccc(C(=O)Nc2ccc(Oc3ccc4nc(NC(=O)C5CC5)cn4c3)cc2)[n+]([O-])c1-c1ccc(F)cc1 | inhibition at 1 µM | ≥ 80%
Cc1ccc(C(=O)Nc2ccc(Oc3ccc4nc(NC(=O)C5CC5)cn4c3)c(F)c2)c(=O)n1-c1ccc(F)cc1.Cl [Example 32, hydrochloride] | inhibition at 1 µM | ≥ 80%

Proceed to the following item.
What value of inhibition at 1 µM has been recorded for this entry: `Cc1ccc(C(=O)Nc2ccc(Oc3ccc4nc(NC(=O)C5CC5)cn4c3)cn2)[n+]([O-])c1-c1ccc(F)cc1`
≥ 80%
